Test system: SR leukemia
Assay: NCI tumour cell line growth inhibition, 48 h; in the data active = GI50 below about 0.43 µM; inactive = the rest
Response enum: t for active, f for inactive

[Q] Each molecule tested received a call. Report the one for Cc1cccnc1CNC1CC(NCc2ncccc2C)CC(NCc2ncccc2C)C1 (configuration not stated) .
[A] t

Further cases:
[Q] Each molecule tested received a call. Report the one for O=C(/C=C/c1cccc(B(O)O)c1)c1cccc(B(O)O)c1 .
[A] t

[Q] Each molecule tested received a call. Report the one for CON .
[A] f

[Q] Each molecule tested received a call. Report the one for CCc1ccccc1-n1c(N)c(C#N)c(-c2ccc(OC)c(OC)c2)c(C#N)c1=O .
[A] f

[Q] Each molecule tested received a call. Report the one for COC(=O)Nc1nc2ccc(Sc3ccccc3)cc2[nH]1 .
[A] t

[Q] Each molecule tested received a call. Report the one for Cc1sc(/N=C2/NC(=O)CS2)nc1-c1nc(/N=C2/NC(=O)CS2)sc1C .
[A] f

[Q] Each molecule tested received a call. Report the one for COc1ccc(-n2cc(-c3ccc(OC)c(OC)c3)nc2SCc2ccccc2)cc1Cl .
[A] f

* * *

System: CCRF-CEM leukemia
Test: NCI tumour cell line growth inhibition, 48 h
Use 5 µM as the dividing line for TGI, with the line itself on the yes side and lower values as no.

// known answers, use as guide
[Q] Textbook exercise: given the entry CC1=NN(c2ccccc2)C(=O)C1N=Nc1ccc(Br)c(C)c1 (stereo not drawn) , state whether its TGI is greater than or equal to 5 µM.
[A] yes

[Q] Textbook exercise: given the entry C[C@@H](Oc1cc(-c2cnn(C3CC4(CCCNC4)C3)c2)cnc1N)c1c(Cl)ccc(F)c1Cl (stereo partly drawn) , state whether its TGI is greater than or equal to 5 µM.
[A] no

[Q] Textbook exercise: given the entry CCCCOc1ccc(S(=O)(=O)/N=C(\NN)Nc2ccc(Cl)cc2)cc1 , state whether its TGI is greater than or equal to 5 µM.
[A] yes

[Q] Textbook exercise: given the entry Oc1[nH]c2ccccc2c1N=NC(=S)N1CCCC1 , state whether its TGI is greater than or equal to 5 µM.
[A] yes

[Q] Textbook exercise: given the entry Cc1ccc(S(=O)(=O)N2CCN3CCN(CCN(C)CCN4CCN(CC4)CCN(S(=O)(=O)c4ccc(C)cc4)CCN(S(=O)(=O)c4ccc(C)cc4)CCN(S(=O)(=O)c4ccc(C)cc4)CCN(S(=O)(=O)c4ccc(C)cc4)CCN4CCN(CCN(C)CCN5CCN(CC5)CCN(S(=O)(=O)c5ccc(C)cc5)CCN(S(=O)(=O)c5ccc(C)cc5)CCN(S(=O)(=O)c5ccc(C)cc5)CC2)CC4)CC3)cc1 , state whether its TGI is greater than or equal to 5 µM.
[A] no

[Q] Textbook exercise: given the entry O=C1c2cccc3cc([N+](=O)[O-])cc(c23)C(=O)N1O , state whether its TGI is greater than or equal to 5 µM.
[A] yes

[Q] Textbook exercise: given the entry CSc1ccc(C2=NN(C(=O)c3ccc(N)cc3)C(c3ccc(F)cc3)C2)cc1 (stereo not drawn) , state whether its TGI is greater than or equal to 5 µM.
[A] no

[Q] Textbook exercise: given the entry Cc1cc(C)c2c(c1)C(=O)C1(C2)Cc2c(ccc(C)c2C)C1=O (stereo not drawn) , state whether its TGI is greater than or equal to 5 µM.
[A] yes

[Q] Textbook exercise: given the entry C=C(C)[C@@H]1CC[C@]2(C)[C@H](C=CC3=C4C[C@@](C)(CO)CC[C@]4(C)CC[C@]32C)[C@@]1(C)CCCN , state whether its TGI is greater than or equal to 5 µM.
[A] yes

[Q] Textbook exercise: given the entry COC1=CC(=O)c2ccccc2C1(C)C1=NC(C)(C)CO1 (stereo not drawn) , state whether its TGI is greater than or equal to 5 µM.
[A] yes

Further cases:
[Q] Textbook exercise: given the entry CNCCOc1nc2c3cnccc3cc(-c3cc(OC)c(OC)c(OC)c3)c2c2ccncc12 , state whether its TGI is greater than or equal to 5 µM.
[A] no

[Q] Textbook exercise: given the entry COC(=O)/C(=N\O)C(C(=O)C=C(C)C)C(=O)C(=O)Nc1ccccc1C (stereo not drawn) , state whether its TGI is greater than or equal to 5 µM.
[A] yes

* * *

Test system: HS 578T breast
Assay: NCI tumour cell line growth inhibition, 48 h; in the data active means GI50 below about 0.43 µM; inactive means the rest
Response enum: 1 for active, -1 for inactive

[Q] Each molecule tested received a call. Report the one for C=C(C)[C@@H]1CC[C@]2(C)[C@H](C=CC3=C4C[C@@](C)(CO)CC[C@]4(C)CC[C@]32C)[C@@]1(C)CCCN .
[A] -1

[Q] Each molecule tested received a call. Report the one for CC(=O)OCC(=O)C1(O)C(C)CC2C3C=C(C)C4=Cc5c(cnn5-c5ccccc5)CC4(C)C3C(O)CC21C (centres undefined) .
[A] -1

[Q] Each molecule tested received a call. Report the one for C=C1CO[C@@H]2C[C@@H]1CC/C(C)=C/CC/C(C)=C/CC[C@@]2(C)O .
[A] -1

[Q] Each molecule tested received a call. Report the one for O=C(/C=C/c1cccc(B(O)O)c1)c1cccc(B(O)O)c1 .
[A] -1

[Q] Each molecule tested received a call. Report the one for O=C(Nc1ccc(S(=O)(=O)NC2CCCCCC2)cc1)C(c1ccccc1)S(=O)(=O)c1ccc(F)cc1 (centres undefined) .
[A] -1

[Q] Each molecule tested received a call. Report the one for COc1ccc(C2C3=C(COC3=O)N(CCO)c3cc4c(cc32)OCCO4)cc1OC (centres undefined) .
[A] -1

* * *

System: 786-0 renal
Assay: NCI tumour cell line growth inhibition, 48 h
outcome-measure: GI50

Known GI50 results, listed for orientation:
The value of GI50 measured for the compound CSc1ccc(C2=NN(C(=O)c3ccc(N)cc3)C(c3ccc(F)cc3)C2)cc1 (stereo not given) turned out to be 13.5 µM

The value of GI50 measured for the compound CCOc1cc(/C=N\NC(=O)N/N=C/c2ccc(O)c(OCC)c2)ccc1O turned out to be 7.68 µM

The value of GI50 measured for the compound C/C(=N\Nc1cccc(Cl)n1)c1ccccn1 turned out to be 0.671 µM

The value of GI50 measured for the compound CC(=O)/C=C/C1=C(c2ccsc2)c2ccccc2CC1 turned out to be 34.1 µM

The value of GI50 measured for the compound CC1(C)CC2CC(C)(CN2c2ncnc3ccc(Br)cc23)C1 (stereo not given) turned out to be 12.8 µM

The value of GI50 measured for the compound N#CC(C#N)=Cc1ccc(-c2ccc(-c3nc4ccccc4o3)cc2)o1 turned out to be 15.8 µM

Further cases:
The value of GI50 measured for the compound COc1ccc(C2C3=C(COC3=O)N(CCO)c3cc4c(cc32)OCCO4)cc1OC (stereo not given) turned out to be 2.48 µM

The value of GI50 measured for the compound CS[C@@]1(C(=O)Nc2ccc3[nH]nc(-c4ccc(OC(C)C)nc4)c3c2)CCN(CC(=O)N2CC=C(c3ccc(-c4ncn(C)n4)cc3)CC2)C1 turned out to be 5.27 µM

The value of GI50 measured for the compound C=C=[CH][Sn]([c]1ccccc1)([c]1ccccc1)[c]1ccccc1 turned out to be 1.51 µM

The value of GI50 measured for the compound CCN(CC)c1ccc2nc3c4ccccc4c(=NC(=O)c4ccccc4-c4c5ccc(N(CC)CC)cc5[o+]c5cc(N(CC)CC)ccc45)cc-3oc2c1 turned out to be 2.41 µM

* * *

Test system: SW-620 colon
Experiment: NCI tumour cell line growth inhibition, 48 h; in the data active = GI50 below about 0.43 µM; inactive = the rest
Response enum: class 1 (active), class 0 (inactive)

[Q] Each compound tested received a call. Report the one for COc1ccc(-n2sc(=O)n(Cc3ccc(COC(=O)C(C)c4ccc(CC(C)C)cc4)cc3)c2=O)cc1 (stereo not drawn) .
[A] class 0

[Q] Each compound tested received a call. Report the one for COC(=O)Nc1nc2ccc(Sc3ccccc3)cc2[nH]1 .
[A] class 1

[Q] Each compound tested received a call. Report the one for CCc1ccccc1-n1c(N)c(C#N)c(-c2ccc(OC)c(OC)c2)c(C#N)c1=O .
[A] class 0

[Q] Each compound tested received a call. Report the one for CN(NC(=O)CC(=O)NN(C)C(=S)c1ccc(Cl)cc1)C(=S)c1ccc(Cl)cc1 .
[A] class 0

[Q] Each compound tested received a call. Report the one for CC(=O)N[C@@H](Cc1ccc(OP(=O)(O)O)cc1)C(=O)N[C@H]1CCC(=O)N2CCC[C@@H](C(=O)NCc3ccc(O)cc3)N2C1=O .
[A] class 0

[Q] Each compound tested received a call. Report the one for CC1(C)CC2CC(C)(CN2c2ncnc3ccc(Br)cc23)C1 (stereo not drawn) .
[A] class 0

[Q] Each compound tested received a call. Report the one for CC[C@H](C)[C@H](NC(=O)C12CC(NC(C)=O)(C1)C2)C(=O)N(C)[C@H](C[C@@H](OC(C)=O)c1nc(C(=O)N[C@@H](Cc2ccccc2)C[C@H](C)C(=O)OC)cs1)C(C)C .
[A] class 1

[Q] Each compound tested received a call. Report the one for COc1cc(C2C(C#N)=C(N)Oc3cc4c(cc32)OCO4)cc2c1OCO2 (stereo not drawn) .
[A] class 1
